Target: T1, cMetECDHis (human, UniProt P08581 25-932, limits assumed, biotinylated in the cross-block ELISA of Example 17)
T1 construct: Expressed in HEK-293F cells; also called soluble cMetECDHis; biotinylated cMetECDHis
Test: cross-block ELISA; competitor 064
Description: First, the optimal coating concentrations of the tested anti-c-Met antibodies and the optimal cMetECDHis concentration were determined. Therefore, ELISA wells were coated overnight at 4° C. with anti-c-Met HuMabs serially diluted in PBS (8 μg/mL in 2-fold dilutions). […] ELISA wells were coated with anti-c-Met antibody at a sub-optimal dose as described above. […] Residual binding was expressed as a percentage relative to the binding observed in the absence of competitor antibody.
Below is a list of entries, each paired with its recorded residual binding, % of no competitor value.
Could you give me the number in %? Just the number is fine.

Guide cases for residual binding, % of no competitor, answers given:
# BINDER, UNITS OF MEASURE, residual binding, % of no competitor
data = [
    ("IgG1-1016-022 (antibody, V domains shown, also called TH1016-022; PC1016-022) VH: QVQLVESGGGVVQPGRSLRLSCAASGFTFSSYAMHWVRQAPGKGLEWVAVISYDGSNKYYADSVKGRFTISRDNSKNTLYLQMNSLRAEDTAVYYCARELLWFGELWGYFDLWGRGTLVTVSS VL: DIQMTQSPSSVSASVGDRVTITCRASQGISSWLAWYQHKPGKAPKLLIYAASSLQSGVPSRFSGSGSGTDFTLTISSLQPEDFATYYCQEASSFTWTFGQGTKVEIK", "%", 102),
    ("anti-c-Met HuMab 098 (IgG1) (antibody, V domains shown, also called TH1016-098; PC1016-098) VH: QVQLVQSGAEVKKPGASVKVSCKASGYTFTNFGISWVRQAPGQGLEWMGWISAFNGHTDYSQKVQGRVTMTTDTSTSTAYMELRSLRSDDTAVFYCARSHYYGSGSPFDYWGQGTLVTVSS VL: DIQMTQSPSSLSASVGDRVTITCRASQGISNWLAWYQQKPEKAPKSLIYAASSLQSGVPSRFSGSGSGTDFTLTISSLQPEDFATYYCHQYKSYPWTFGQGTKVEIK", "%", 9.3),
]

We next turn to a different binder, shown below.
Enquiry: Supply residual binding, % of no competitor value. Item: anti-c-Met HuMab 035 (IgG1) (antibody, V domains shown, also called P1016-035; TH1016-035-D09) VH: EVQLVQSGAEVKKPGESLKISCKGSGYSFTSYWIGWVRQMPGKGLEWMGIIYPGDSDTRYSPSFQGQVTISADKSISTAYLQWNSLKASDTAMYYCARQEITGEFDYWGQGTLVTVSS VL: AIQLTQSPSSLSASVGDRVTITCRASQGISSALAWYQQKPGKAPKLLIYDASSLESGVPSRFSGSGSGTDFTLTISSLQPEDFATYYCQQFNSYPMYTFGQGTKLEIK
Return: 132
